Biological target: PBP1a from Acinetobacter baumannii (ATCC 19606) (Acinetobacter baumannii, UniProt A0ABX6CK30)
Sequence (A0ABX6CK30 1-851): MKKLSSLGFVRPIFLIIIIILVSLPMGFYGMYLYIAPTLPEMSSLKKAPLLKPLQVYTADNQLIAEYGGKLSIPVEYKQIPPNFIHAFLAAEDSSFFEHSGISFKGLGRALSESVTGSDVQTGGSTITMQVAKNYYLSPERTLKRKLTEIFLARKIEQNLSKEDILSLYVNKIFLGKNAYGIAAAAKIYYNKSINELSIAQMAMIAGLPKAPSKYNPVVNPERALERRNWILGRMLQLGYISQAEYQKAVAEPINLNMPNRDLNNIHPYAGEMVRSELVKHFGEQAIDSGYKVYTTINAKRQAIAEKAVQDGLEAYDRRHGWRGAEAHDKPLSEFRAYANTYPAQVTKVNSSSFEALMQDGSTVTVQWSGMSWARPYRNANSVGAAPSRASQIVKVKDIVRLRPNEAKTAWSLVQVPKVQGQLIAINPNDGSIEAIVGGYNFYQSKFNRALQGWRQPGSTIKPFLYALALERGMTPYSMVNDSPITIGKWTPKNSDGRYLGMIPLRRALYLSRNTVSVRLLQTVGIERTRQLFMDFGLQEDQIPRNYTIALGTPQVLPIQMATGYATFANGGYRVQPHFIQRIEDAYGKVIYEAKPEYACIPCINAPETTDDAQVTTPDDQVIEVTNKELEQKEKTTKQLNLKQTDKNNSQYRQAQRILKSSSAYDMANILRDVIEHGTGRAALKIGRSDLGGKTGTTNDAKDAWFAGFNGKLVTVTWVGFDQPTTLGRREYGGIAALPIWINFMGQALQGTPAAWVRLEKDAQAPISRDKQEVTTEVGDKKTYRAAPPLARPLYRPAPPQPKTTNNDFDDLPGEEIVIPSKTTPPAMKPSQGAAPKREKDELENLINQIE
reported.metric: IC50

molecule O=C(O)c1c(F)ccc2c1OB(O)[C@@H](NC(=O)C(NC(=O)N1CCN(CCNC(=O)[C@@H]3CCCN3)C1=O)c1cc(F)c(O)c(O)c1Cl)C2 (some centres unmarked) [Example 248] , IC50 observed: > 250 µM

Field IC50 (entry O=C(O)c1cccc2c1OB(O)[C@@H](NC(=O)C(NC(=O)N1CCN(Cc3cc(F)c(O)c(O)c3Cl)C(=O)C1=O)c1ccc(P(=O)(O)O)cc1)C2 (some centres unmarked) [Example 164] ) reads > 250 µM

Entry O=C(NCCS(=O)(=O)N1CCN(C(=O)NC(C(=O)N[C@H]2Cc3ccc(F)c(C(=O)O)c3OB2O)c2cc(F)c(O)c(O)c2Cl)C1=O)Nc1cccc(O)c1 (some centres unmarked) [Example 266] ; IC50 = > 250 µM

Per the record, O=C(NCCCN1CCN(C(=O)NC(C(=O)N[C@H]2Cc3ccc(F)c(C(=O)O)c3OB2O)c2cc(F)c(O)c(O)c2Cl)C(=O)C1=O)c1ccccc1 (some centres unmarked) [Example 202] has IC50 of > 250 µM

Per the records, this molecule ( O=C(NCCS(=O)(=O)N1CCN(C(=O)N[C@@H](C(=O)N[C@H]2Cc3ccc(F)c(C(=O)O)c3OB2O)c2cc(F)c(O)c(O)c2Cl)C1=O)Nc1ccncc1 [Example 290] ) has IC50 equal to > 250 µM

====

Tested on: A. baumannii CDC-0083
Test: microbe, parasite or virus in culture
Type: cell-based
Conditions: Acinetobacter baumannii, CDC0083, read-out: MIC, A. baumannii CDC-0083
reported.metric: MIC

Use these answered entries as a reference point.
O=C(O)c1c(F)ccc2c1OB(O)[C@@H](NC(=O)C(NC(=O)N1CCN(Cc3cc(F)c(O)c(O)c3Cl)C(=O)C1=O)c1ccc(P(=O)(O)O)cc1)C2 (some centres unmarked): < 1 µg/mL
CN(CCN1CCN(C(=O)NC(C(=O)N[C@H]2Cc3ccc(F)c(C(=O)O)c3OB2O)c2cc(F)c(O)c(O)c2Cl)C(=O)C1=O)S(=O)(=O)c1ccc(C(N)=O)cc1 (some centres unmarked): 2 to 4 µg/mL
O=C(CN1CCN(C(=O)NC(C(=O)N[C@H]2Cc3ccc(F)c(C(=O)O)c3OB2O)c2cc(F)c(O)c(O)c2Cl)C(=O)C1=O)Nc1cccnc1 (some centres unmarked): < 1 µg/mL
O=C(NCCCS(=O)(=O)N1CCN(C(=O)N[C@H](C(=O)N[C@H]2Cc3ccc(F)c(C(=O)O)c3OB2O)c2cc(F)c(O)c(O)c2Cl)C1=O)c1cccc(O)c1: 2 to 4 µg/mL

# input for lookup
The reported MIC of the compound O=C(NCCN1CCN(C(=O)NC(C(=O)N[C@H]2Cc3ccc(F)c(C(=O)O)c3OB2O)c2cc(F)c(O)c(O)c2Cl)C1=O)c1ccccc1 (some centres unmarked) was 2 to 4 µg/mL

====

Molecular target: A. baumannii PBP1a (Acinetobacter baumannii, UniProt A0ABX6CK30)
Experiment: Bocillin-FL competition binding via gel filtration, A. baumannii PBP1a
Conditions: competition binding assay using Bocillin-FL via gel filtration; read-out: A. baumannii PBP1a Potency
reported.metric: EC50

# EC50 of O=C(O)c1c(F)ccc2c1OB(O)[C@@H](NC(=O)[C@H](NC(=O)N1CCN(C3CCN(C(=O)c4cc(F)c(O)c(O)c4Cl)CC3)C1=O)c1ccc(P(=O)(O)O)cc1)C2 (single isomer, unassigned) [Example 495] = < 10 µM

====

Measured pIC50 of individual entries
Target: PBP3 from Pseudomonas aeruginosa (PAO1) (Pseudomonas aeruginosa)
Sequence (G3XD46 whole entry): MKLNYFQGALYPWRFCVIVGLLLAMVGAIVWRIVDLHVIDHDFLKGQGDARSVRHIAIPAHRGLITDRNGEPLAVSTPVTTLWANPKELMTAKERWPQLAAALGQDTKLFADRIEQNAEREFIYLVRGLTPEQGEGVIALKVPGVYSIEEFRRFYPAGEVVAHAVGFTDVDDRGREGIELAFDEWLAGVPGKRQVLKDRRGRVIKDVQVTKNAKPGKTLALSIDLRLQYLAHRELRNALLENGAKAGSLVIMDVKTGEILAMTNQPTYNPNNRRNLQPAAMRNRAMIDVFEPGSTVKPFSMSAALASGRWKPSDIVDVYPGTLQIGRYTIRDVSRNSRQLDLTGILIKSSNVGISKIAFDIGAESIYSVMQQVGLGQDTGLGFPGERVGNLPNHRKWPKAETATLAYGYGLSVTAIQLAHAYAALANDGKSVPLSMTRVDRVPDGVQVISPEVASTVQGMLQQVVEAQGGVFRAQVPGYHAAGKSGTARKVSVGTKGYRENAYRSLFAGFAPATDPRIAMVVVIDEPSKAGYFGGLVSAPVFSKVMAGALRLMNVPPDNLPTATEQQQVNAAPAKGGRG
Test: Bocillin-FL fluorescence polarization competition binding, P. aeruginosa PBP3
Details: Binding affinity to P. aeruginosa PBP3; fluorescence polarization competition binding assay using Bocillin-FL; read-out: P. aeruginosa PBP3 Potency
Excerpt: To determine the ability of boronic acid-based test PBP inhibitors to bind Penicillin Binding Proteins (PBPs), Bocillin-FL (fluorescently-labeled penicillin V; ThermoFisher Scientific) was used in a fluorescence polarization (FP) competition binding assay to assess inhibitor binding to PBP3 from Escherichia coli (K-12), PBP3 from Pseudomonas aeruginosa (PAO1), PBP1a and PBP3 from Acinetobacter baumannii (ATCC 19606), and PBP2 from Neisseria gonorrhoeae (FA19). […]
pIC50: −log10 of the molar value.

Examples with their reported pIC50 follow.
O=C(NCCCN1CCN(C(=O)N[C@H](C(=O)N[C@H]2Cc3ccc(F)c(C(=O)O)c3OB2O)c2cc(F)c(O)c(O)c2Cl)C(=O)C1=O)c1cccc(O)c1Cl [Example 302]: 3.60 to 4.30
O=C(O)c1c(F)ccc2c1OB(O)[C@@H](NC(=O)[C@H](NC(=O)N1CCN(CCNC(=O)[C@@H]3CCCN3)C(=O)C1=O)c1cc(F)c(O)c(O)c1Cl)C2 [Example 229]: > 5.00

// recorded pIC50 for O=C(O)c1c(F)ccc2c1OB(O)[C@@H](NC(=O)C(NC(=O)N1CCN(Cc3ccc(O)c(O)c3Cl)C(=O)C1=O)c1ccc(P(=O)(O)O)c(F)c1)C2 (some centres unmarked) [Example 23] : > 5.00

Record O=C(NCCCN1CCN(C(=O)NC(C(=O)N[C@H]2Cc3ccc(F)c(C(=O)O)c3OB2O)c2cc(F)c(O)c(O)c2Cl)C1=O)c1ccc(O)cc1 (some centres unmarked) [Example 280] . Reported pIC50: > 5.00

Record O=C(O)c1cccc2c1OB(O)[C@@H](NC(=O)C(NC(=O)c1ccc[nH]c1=O)c1ccc(P(=O)(O)O)cc1)C2 (some centres unmarked) [Example 174] , field pIC50: 4.30 to 5.00

The compound listed as CCN1CCN(C(=O)NC(C(=O)N[C@H]2Cc3cccc(C(=O)O)c3OB2O)c2ccc(CP(=O)(O)O)cc2)C(=O)C1=O (some centres unmarked) [Example 20] shows pIC50 equal to > 5.00

Looking up O=C(O)c1c(F)ccc2c1OB(O)[C@@H](NC(=O)[C@@H](NC(=O)N1CCN(Cc3ccc(O)c(O)c3Cl)C(=O)C1=O)c1ccc(P(=O)(O)O)c(F)c1F)C2 [Example 165] , I found its pIC50 recorded as 4.30 to 5.00

====

Tested on: N. gonorrhoeae WHO K
Test: Liquid broth MIC in Fastidious broth
Conditions: Neisseria gonorrhoeae, read-out: Minimum Inhibitory Concentration (MIC), N. gonorrhoeae WHO K
reported.metric: MIC

Consider the reported MIC for these molecules:
CN(CCN1CCN(C(=O)N[C@@H](C(=O)N[C@H]2Cc3ccc(F)c(C(=O)O)c3OB2O)c2cc(F)c(O)c(O)c2Cl)C(=O)C1=O)Cc1cncc(O)c1: 16 to 32 µg/mL
CCN1CCN(C(=O)NC(C(=O)N[C@H]2Cc3cccc(C(=O)O)c3OB2O)c2c(F)cc(P(=O)(O)O)cc2F)C(=O)C1=O (stereo partly drawn): 1 to 2 µg/mL
O=C(CN1CCN(C(=O)NC(C(=O)N[C@H]2Cc3ccc(F)c(C(=O)O)c3OB2O)c2cc(F)c(O)c(O)c2Cl)C(=O)C1=O)Nc1ccncc1 (stereo partly drawn): 16 to 32 µg/mL
CS(=O)(=O)N1CCC[C@@H]1C(=O)N[C@H](C(=O)N[C@H]1Cc2cccc(C(=O)O)c2OB1O)c1ccc(P(=O)(O)O)cc1: 16 to 32 µg/mL
CCN1CCN(C(=O)NC(C(=O)N[C@H]2Cc3cccc(C(=O)O)c3OB2O)c2ccc(P(=O)(O)O)c(F)c2O)C(=O)C1=O (stereo partly drawn): 4 to 8 µg/mL
O=C(O)c1cccc2c1OB(O)[C@@H](NC(=O)C(NC(=O)c1cnc[nH]c1=O)c1ccc(P(=O)(O)O)cc1)C2 (stereo partly drawn): 16 to 32 µg/mL
CC(C)(C)C(=O)NC(C(=O)N[C@H]1Cc2cccc(C(=O)O)c2OB1O)c1ccc(P(=O)(O)O)cc1 (stereo partly drawn): 16 to 32 µg/mL
CCN1CCN(C(=O)N[C@@H](C(=O)N[C@H]2Cc3ccc(F)c(C(=O)O)c3OB2O)c2ccc(P(=O)(O)O)cc2)C(=O)C1=O (single isomer, unassigned): < 1 µg/mL

Kindly review the next molecule as well.
Field MIC (entry O=C(CN1CCN(C(=O)NC(C(=O)N[C@H]2Cc3ccc(F)c(C(=O)O)c3OB2O)c2cc(F)c(O)c(O)c2Cl)C(=O)C1=O)Nc1cccc(O)c1 (stereo partly drawn) ) reads 16 to 32 µg/mL
